system: up to 32 different microorganisms; test: in vitro antibacterial activity (MIC), agar dilution on Brain Heart Infusion (BHI) agar with Steers replicator; format: cell-based; settings: Streptococcus bovis A-5169 (code JJ); unit assumed
Exercise: for every item that follows, state its recorded log10 MIC.
Kindly note that the scale is log10 and the underlying MIC is in µg/mL.

INPUT: Return reported log10 MIC; argument: CC[C@H]1OC(=O)[C@H](C)C(=O)[C@H](C)[C@@H](O[C@@H]2O[C@H](C)C[C@H](N(C)C)[C@H]2O)[C@@](C)(OCCN)C[C@@H](C)C(=O)[C@H](C)[C@@H](O)[C@]1(C)O
OUTPUT: 0.49

INPUT: Return reported log10 MIC; argument: CC[C@H]1OC(=O)[C@H](C)C(=O)[C@H](C)[C@@H](O[C@@H]2O[C@H](C)C[C@H](N(C)C)[C@H]2O)[C@@](C)(OCc2ccc3ccccc3c2)C[C@@H](C)C(=O)[C@H](C)[C@@H](O)[C@]1(C)O
OUTPUT: -0.11

INPUT: Return reported log10 MIC; argument: CCC1OC(=O)C(C)C(=O)C(C)C(OC2OC(C)CC(N(C)C)C2O)C(C)(OCC=Cc2cnc3ccccc3c2)CC(C)C(=O)C(C)C2N(CC=Cc3cnc4ccccc4c3)C(=O)OC12C (stereo not drawn)
OUTPUT: -1.00

INPUT: Return reported log10 MIC; argument: CC[C@H]1OC(=O)[C@H](C)C(=O)[C@H](C)[C@@H](O[C@@H]2O[C@H](C)C[C@H](N(C)C)[C@H]2O)[C@@](C)(OCC=Cc2ccccc2)C[C@@H](C)C(=O)[C@H](C)[C@H]2OC(=O)O[C@@]21C
OUTPUT: -2.00

INPUT: Return reported log10 MIC; argument: CC[C@H]1OC(=O)[C@H](C)C(=O)[C@H](C)[C@@H](O[C@@H]2O[C@H](C)C[C@H](N(C)C)[C@H]2O)[C@@](C)(OCCNCCc2ccccc2)C[C@@H](C)C(=O)[C@H](C)[C@@H](O)[C@]1(C)O
OUTPUT: -0.70

INPUT: Return reported log10 MIC; argument: CC[C@H]1OC(=O)[C@H](C)C(=O)[C@H](C)[C@@H](O[C@@H]2O[C@H](C)C[C@H](N(C)C)[C@H]2O)[C@@](C)(OCCNCc2ccccc2)C[C@@H](C)C(=O)[C@H](C)[C@@H](O)[C@]1(C)O
OUTPUT: -1.30

INPUT: Return reported log10 MIC; argument: CC[C@H]1OC(=O)[C@H](C)C(=O)[C@H](C)[C@@H](O[C@@H]2O[C@H](C)C[C@H](N(C)C)[C@H]2O)[C@@](C)(OCC(O)C#N)C[C@@H](C)C(=O)[C@H](C)[C@@H](O)[C@]1(C)O (stereo partly drawn)
OUTPUT: -1.70

INPUT: Return reported log10 MIC; argument: C=CCO[C@@]1(C)C[C@@H](C)C(=O)[C@H](C)[C@H]2OC(=O)O[C@]2(C)[C@@H](CC)OC(=O)[C@H](C)C(=O)[C@H](C)[C@H]1O[C@@H]1O[C@H](C)C[C@H](N(C)C)[C@H]1O
OUTPUT: -0.70

INPUT: Return reported log10 MIC; argument: CC[C@H]1OC(=O)[C@H](C)C(=O)[C@H](C)[C@@H](O[C@@H]2O[C@H](C)C[C@H](N(C)C)[C@H]2O)[C@@](C)(OCCCc2ccccc2)C[C@@H](C)C(=O)[C@H](C)[C@H]2OC(=O)O[C@@]21C
OUTPUT: -1.30

INPUT: Return reported log10 MIC; argument: C=CCO[C@@]1(C)C[C@@H](C)C(=O)[C@H](C)[C@H]2NC(=O)O[C@]2(C)[C@@H](CC)OC(=O)[C@H](C)C(=O)[C@H](C)[C@H]1O[C@@H]1O[C@H](C)C[C@H](N(C)C)[C@H]1O
OUTPUT: -0.70

INPUT: Return reported log10 MIC; argument: CCC1OC(=O)C(C)C(=O)C(C)C(OC2OC(C)CC(N(C)C)C2O)C(C)(OCC=Cc2cnc3ccc([N+](=O)[O-])cc3c2)CC(C)C(=O)C(C)C2NC(=O)OC12C (stereo not drawn)
OUTPUT: -2.00

INPUT: Return reported log10 MIC; argument: CCC1OC(=O)C(C)C(=O)C(C)C(OC2OC(C)CC(N(C)C)C2O)C(C)(OCC=Cc2cnc3ccccc3c2)CC(C)C(=O)C(C)C2N(CCN(C)C)C(=O)OC12C (stereo not drawn)
OUTPUT: -2.00

INPUT: Return reported log10 MIC; argument: CC[C@H]1OC(=O)[C@H](C)C(=O)[C@H](C)[C@@H](O[C@@H]2O[C@H](C)C[C@H](N(C)C)[C@H]2O)[C@@](C)(OCCCc2ccccc2)C[C@@H](C)C(=O)[C@H](C)[C@@H](O)[C@]1(C)O
OUTPUT: -0.70

INPUT: Return reported log10 MIC; argument: C=CCOC1(C)CC(C)C(=O)C(C)C(O)C(C)(O)C(CC)OC(=O)C(C)C(=O)C(C)C1OC1OC(C)CC(N(C)C)C1O (stereo not drawn)
OUTPUT: 1.40

INPUT: Return reported log10 MIC; argument: CC[C@H]1OC(=O)[C@H](C)C(=O)[C@H](C)[C@@H](O[C@@H]2O[C@H](C)C[C@H](N(C)C)[C@H]2O)[C@@](C)(OCC=Cc2ccc(Cl)cc2)C[C@@H](C)C(=O)[C@H](C)[C@@H](O)[C@]1(C)O
OUTPUT: -0.41
